Assign self-cleavage kobs at 160 uM GlcN6P to each entry below.
B1: glmS ribozyme (parent)
chain: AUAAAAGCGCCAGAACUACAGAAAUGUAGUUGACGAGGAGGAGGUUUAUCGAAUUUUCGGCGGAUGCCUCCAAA

- Variants of: B1
- ASSAY INFO: self-cleavage kobs at 160 uM GlcN6P; higher = faster cleavage; RNA array
- ASSAY SETUP: with glucosamine-6-phosphate
Fewer inactive variants are shown than the library holds.

// lookup self-cleavage kobs at 160 uM GlcN6P for G7U U30C G32A
< 1e-05 s⁻¹

G51U C61A C71A ?
< 1e-05 s⁻¹

G13U G32A G41C G63U C71A ?
< 1e-05 s⁻¹

G7U G41U A53G ?
< 1e-05 s⁻¹

A39G U65C ?
5.26e-05 s⁻¹

G35C U49G ?
< 1e-05 s⁻¹

A36C G40A ?
< 1e-05 s⁻¹

G7U G59U ?
< 1e-05 s⁻¹

A14U A53U ?
0.000453 s⁻¹

C11G C34A ?
< 1e-05 s⁻¹

"C11U" ?
0.000216 s⁻¹

A6U G9U ?
< 1e-05 s⁻¹

C11G U46G C61A G66A ?
< 1e-05 s⁻¹

C10A G40A C71A ?
< 1e-05 s⁻¹

C34G A64U C67U ?
< 1e-05 s⁻¹

G9C C70U ?
< 1e-05 s⁻¹
